# Test system: Mus musculus
# protocol_notes: CNS activity in po dosed mouse assessed as antagonism against pentylenetetrazole-induced response
# Format: functional
parameter_measured: ED50 (mg/kg)
One number for each entry, in mg/kg.

Quick request: ED50 for each listed item, please.
1. COC(=O)c1nnc2n1-c1ccc(Cl)cc1C(c1ccccc1)=NC2
2. [O-][N+]1=C(c2ccccc2)c2cc(Cl)ccc2-n2c(nnc2C(O)CO)C1 (centres undefined)
3. Cc1nnc2n1-c1ccc(Cl)cc1C(c1ccccc1)=NC2
4. CNC1=Nc2ccc(Cl)cc2C(c2ccccc2)=[N+]([O-])C1 [CHLORDIAZEPOXIDE]
5. NNC(=O)c1nnc2n1-c1ccc(Cl)cc1C(c1ccccc1)=NC2
6. C=Cc1nnc2n1-c1ccc(Cl)cc1C(c1ccccc1Cl)=NC2
7. OCC(O)c1nnc2n1-c1ccc(Cl)cc1C(c1ccccc1)=NC2 (centres undefined)

Response given:
1. 0.9
2. 620
3. 0.3
4. 8
5. 2.8
6. 4.2
7. 3.8

* * *

# Test system: Mus musculus
# protocol_notes: CNS activity in po dosed mouse assessed as antagonism against pentylenetetrazole-induced response
# Format: functional
Assign ED50 to each entry below.
One number for each entry, in mg/kg.

Recorded results for 3 compounds are shown here.
Cc1nnc2n1-c1ccc(Cl)cc1C(c1ccccc1)=[N+]([O-])C2
3.35
CN(C)CCNC(=O)c1nnc2n1-c1ccc(Cl)cc1C(c1ccccc1)=NC2
50
OCC(O)c1nnc2n1-c1ccc(Cl)cc1C(c1ccccc1F)=NC2 (configuration not stated)
1.5

Batch request: ED50 per item, same order as input.
1. Clc1ccc2c(c1)C(c1ccccc1)=NCc1nncn1-2
2. CN1C(=O)CN=C(c2ccccc2)c2cc(Cl)ccc21
3. C=Cc1nnc2n1-c1ccc(Cl)cc1C(c1ccccc1F)=NC2

Response given:
[1.1, 1.4, 1.3]
